# ASSAY DETAILS: Stability investigation of crystal forms A, B, C, D and the amorphous form of the compound of formula (1) (related substances by HPLC, moisture, XRD, DSC)
# Assay type: physicochemical
# TEST PARAMETERS: 0 day
// reported DSC per item
QUANTITY NAME: DSC (°C)

>>> df
                                   compound  unit_symbol  reading
0  C[C@H]1CCN1c1nc(N2C[C@@H]3[C@@H](CC(=O)O)[C@@H]3C2)c2c(n1)C(F)(F)CC2 [Crystal form B]           °C   169.28
1  C[C@H]1CCN1c1nc(N2C[C@@H]3[C@@H](CC(=O)O)[C@@H]3C2)c2c(n1)C(F)(F)CC2 [Crystal form C]           °C   172.44
2  C[C@H]1CCN1c1nc(N2C[C@@H]3[C@@H](CC(=O)O)[C@@H]3C2)c2c(n1)C(F)(F)CC2 [Crystal form A]           °C   170.33
3  C[C@H]1CCN1c1nc(N2C[C@@H]3[C@@H](CC(=O)O)[C@@H]3C2)c2c(n1)C(F)(F)CC2 [Crystal form D]           °C   167.79
